Each entry below carries its reported MIC90.
Tested on: Klebsiella pneumoniae
Experiment: Antibacterial activity against Klebsiella pneumoniae by NCCLS broth microdilution method
Assay type: functional
Conditions: Klebsiella pneumoniae; read-out: MIC90
Write the answer as a number in µg/mL, unit excluded.

CO/N=C1\C2CCCC1(C)C(c1ccc(C)cc1)NC2c1ccc(C)cc1 (stereo unspecified) : 64
CC1CC2C(=NO)C(C1)C(c1ccc(F)cc1)NC2c1ccc(F)cc1 (stereo unspecified) : 32
CC12CCCC(/C1=N\O)C(c1ccccc1F)NC2c1ccccc1F (stereo unspecified) : 16

Request: Return MIC90 measured with Klebsiella pneumoniae given this compound: CO/N=C1\C2CCCC1(C)C(c1ccc(Cl)cc1)NC2c1ccc(Cl)cc1 (stereo unspecified)
Response: 16

Request: Return MIC90 measured with Klebsiella pneumoniae given this compound: CC12CCCC(/C1=N\O)C(c1cccc(Cl)c1)NC2c1cccc(Cl)c1 (stereo unspecified)
Response: 64

Request: Return MIC90 measured with Klebsiella pneumoniae given this compound: CO/N=C1\C2CCCC1(C)C(c1ccccc1C)NC2c1ccccc1C (stereo unspecified)
Response: 128

Request: Return MIC90 measured with Klebsiella pneumoniae given this compound: CO/N=C1\C2CCCC1(C)C(c1ccc(F)cc1)NC2c1ccc(F)cc1 (stereo unspecified)
Response: 16

Request: Return MIC90 measured with Klebsiella pneumoniae given this compound: CO/N=C1\C2CCCC1(C)C(c1ccccc1)NC2c1ccccc1 (stereo unspecified)
Response: 128

Request: Return MIC90 measured with Klebsiella pneumoniae given this compound: CC1CC2C(=NO)C(C1)C(c1cccc(Cl)c1)NC2c1cccc(Cl)c1 (stereo unspecified)
Response: 32

---

Test system: Pseudomonas aeruginosa
Assay: Antibacterial activity against Pseudomonas aeruginosa by NCCLS broth microdilution method
Type: functional
Details: Pseudomonas aeruginosa; read-out: MIC90
Each entry below carries its reported MIC90.
Write the answer as a number in µg/mL, unit excluded.

Worked examples, 3 compounds total:
CO/N=C1\C2CCCC1(C)C(c1ccc(F)cc1)NC2c1ccc(F)cc1 (stereo not given) : 16
CO/N=C1\C2CCCC1(C)C(c1ccccc1OC)NC2c1ccccc1OC (stereo not given) : 64
CO/N=C1\C2CCCC1(C)C(c1cccc(F)c1)NC2c1cccc(F)c1 (stereo not given) : 32

Request: I am curious: what MIC90 value has been reported for CC12CCCC(/C1=N\O)C(c1cccc(F)c1)NC2c1cccc(F)c1 (stereo not given) ?
Response: 128

---

Each entry below carries its reported MIC90.
System: Pseudomonas aeruginosa
Assay: Antibacterial activity against Pseudomonas aeruginosa by NCCLS broth microdilution method
Type: functional
Settings: Pseudomonas aeruginosa; read-out: MIC90

Request: I am curious: what MIC90 value has been reported for CON=C1C2CC(C)CC1C(c1cccc(Cl)c1)NC2c1cccc(Cl)c1 (configuration not stated) ?
Response: 128 µg/mL

Request: I am curious: what MIC90 value has been reported for CC12CCCC(/C1=N\O)C(c1ccccc1F)NC2c1ccccc1F (configuration not stated) ?
Response: 32 µg/mL

Request: I am curious: what MIC90 value has been reported for CO/N=C1\C2CCCC1(C)C(c1ccccc1C)NC2c1ccccc1C (configuration not stated) ?
Response: 128 µg/mL

Request: I am curious: what MIC90 value has been reported for CC12CCCC(/C1=N\O)C(c1ccc(Cl)cc1)NC2c1ccc(Cl)cc1 (configuration not stated) ?
Response: > 128 µg/mL

Request: I am curious: what MIC90 value has been reported for CO/N=C1\C2CCCC1(C)C(c1cccc(Cl)c1)NC2c1cccc(Cl)c1 (configuration not stated) ?
Response: 64 µg/mL

Request: I am curious: what MIC90 value has been reported for CC12CCCC(/C1=N\O)C(c1cccc(Cl)c1)NC2c1cccc(Cl)c1 (configuration not stated) ?
Response: > 128 µg/mL

Request: I am curious: what MIC90 value has been reported for COc1ccc(C2NC(c3ccc(OC)cc3)C3(C)CCCC2/C3=N\O)cc1 (configuration not stated) ?
Response: > 128 µg/mL

Request: I am curious: what MIC90 value has been reported for CC1CC2C(=NO)C(C1)C(c1ccc(Cl)cc1)NC2c1ccc(Cl)cc1 (configuration not stated) ?
Response: 32 µg/mL

Request: I am curious: what MIC90 value has been reported for CO/N=C1\C2CCCC1(C)C(c1ccc(Br)cc1)NC2c1ccc(Br)cc1 (configuration not stated) ?
Response: > 128 µg/mL

---

Tested on: Bacillus subtilis
Test: Antibacterial activity against Bacillus subtilis by NCCLS broth microdilution method
Assay type: functional
Attribute Measured: MIC90 (µg/mL)
Write the answer as a number in µg/mL, unit excluded.

Worked examples, 5 compounds total:
CON=C1C2CC(C)CC1C(c1ccccc1Cl)NC2c1ccccc1Cl (stereo in doubt; 58a) : 8
CON=C1C2CC(C)CC1C(c1ccccc1F)NC2c1ccccc1F (stereo in doubt; 55b) : 8
CC1CC2C(=NO)C(C1)C(c1ccccc1F)NC2c1ccccc1F (stereo in doubt; 49b) : 32
CC1CC2C(=NO)C(C1)C(c1ccccc1Cl)NC2c1ccccc1Cl (stereo in doubt; 52b) : 64
CON=C1C2CC(C)CC1C(c1cccc(F)c1)NC2c1cccc(F)c1 (stereo in doubt; 56b) : 32

As a next step, examine the compound that follows.
Request: I am curious: what MIC90 value has been reported for CON=C1C2CC(C)CC1C(c1ccccc1Cl)NC2c1ccccc1Cl (stereo in doubt; 58b) ?
Response: 32

---

Each entry below carries its reported MIC90.
Test system: Klebsiella pneumoniae
Test: Antibacterial activity against Klebsiella pneumoniae by NCCLS broth microdilution method
Format: functional
Settings: Klebsiella pneumoniae; read-out: MIC90
Write the answer as a number in µg/mL, unit excluded.

Request: I am curious: what MIC90 value has been reported for CC1CC2C(=NO)C(C1)C(c1ccc(Cl)cc1)NC2c1ccc(Cl)cc1 (stereo unspecified) ?
Response: 16

Request: I am curious: what MIC90 value has been reported for CON=C1C2CC(C)CC1C(c1ccc(Cl)cc1)NC2c1ccc(Cl)cc1 (stereo unspecified) ?
Response: 8

Request: I am curious: what MIC90 value has been reported for CC12CCCC(/C1=N\O)C(c1ccc(Cl)cc1)NC2c1ccc(Cl)cc1 (stereo unspecified) ?
Response: 16

Request: I am curious: what MIC90 value has been reported for CO/N=C1\C2CCCC1(C)C(c1cccc(OC)c1)NC2c1cccc(OC)c1 (stereo unspecified) ?
Response: 128

Request: I am curious: what MIC90 value has been reported for COc1ccc(C2NC(c3ccc(OC)cc3)C3(C)CCCC2/C3=N\O)cc1 (stereo unspecified) ?
Response: 64

Request: I am curious: what MIC90 value has been reported for CO/N=C1\C2CCCC1(C)C(c1ccccc1OC)NC2c1ccccc1OC (stereo unspecified) ?
Response: 32

Request: I am curious: what MIC90 value has been reported for CC12CCCC(/C1=N\O)C(c1ccc(F)cc1)NC2c1ccc(F)cc1 (stereo unspecified) ?
Response: 32

Request: I am curious: what MIC90 value has been reported for CO/N=C1\C2CCCC1(C)C(c1ccc(Br)cc1)NC2c1ccc(Br)cc1 (stereo unspecified) ?
Response: 32

Request: I am curious: what MIC90 value has been reported for CO/N=C1\C2CCCC1(C)C(c1ccccc1Br)NC2c1ccccc1Br (stereo unspecified) ?
Response: 64

Request: I am curious: what MIC90 value has been reported for CON=C1C2CC(C)CC1C(c1cccc(F)c1)NC2c1cccc(F)c1 (stereo in doubt; 56a) ?
Response: 64

Request: I am curious: what MIC90 value has been reported for CC12CCCC(/C1=N\O)C(c1ccccc1Cl)NC2c1ccccc1Cl (stereo unspecified) ?
Response: 16

Request: I am curious: what MIC90 value has been reported for Cc1ccccc1C1NC(c2ccccc2C)C2(C)CCCC1/C2=N\O (stereo unspecified) ?
Response: 128

Request: I am curious: what MIC90 value has been reported for CO/N=C1\C2CCCC1(C)C(c1ccc(OC)cc1)NC2c1ccc(OC)cc1 (stereo unspecified) ?
Response: 64

Request: I am curious: what MIC90 value has been reported for CO/N=C1\C2CCCC1(C)C(c1cccc(Cl)c1)NC2c1cccc(Cl)c1 (stereo unspecified) ?
Response: 32

Request: I am curious: what MIC90 value has been reported for CC12CCCC(/C1=N\O)C(c1ccccc1Br)NC2c1ccccc1Br (stereo unspecified) ?
Response: 128

---

Tested on: Pseudomonas aeruginosa
Assay: Antibacterial activity against Pseudomonas aeruginosa by NCCLS broth microdilution method
Assay type: functional
Settings: Pseudomonas aeruginosa; read-out: MIC90
Each entry below carries its reported MIC90.
Write the answer as a number in µg/mL, unit excluded.

Worked examples, 5 molecules total:
CC1CC2C(=NO)C(C1)C(c1ccc(F)cc1)NC2c1ccc(F)cc1 (centres undefined) : 64
CO/N=C1\C2CCCC1(C)C(c1ccccc1F)NC2c1ccccc1F (centres undefined) : 8
CO/N=C1\C2CCCC1(C)C(c1ccc(Cl)cc1)NC2c1ccc(Cl)cc1 (centres undefined) : 64
CO/N=C1\C2CCCC1(C)C(c1ccc(C)cc1)NC2c1ccc(C)cc1 (centres undefined) : 128
CON=C1C2CC(C)CC1C(c1ccc(F)cc1)NC2c1ccc(F)cc1 (centres undefined) : 16

Request: I am curious: what MIC90 value has been reported for CO/N=C1\C2CCCC1(C)C(c1ccccc1Cl)NC2c1ccccc1Cl (centres undefined) ?
Response: 8

Request: I am curious: what MIC90 value has been reported for CO/N=C1\C2CCCC1(C)C(c1ccccc1Br)NC2c1ccccc1Br (centres undefined) ?
Response: 128
